These measurements were taken from patent US20170334899A1.

# System Tested: CDK2/CycE (Homo sapiens, UniProt P24941)
# Construct: GST
# Assay Summary: CDK2/CycE kinase assay (TR-FRET)
# Experimental Conditions: avg, read-out: CDK2 avg (IC50 [mol/l])
Experimental Endpoint: IC50

Example compounds with recorded IC50:
>>> readout_value("Cc1nsc(Nc2cnc3ccccc3n2)c1C(=O)Nc1cccc(NS(=O)(=O)C2CCCN(C(=O)OCc3ccccc3)C2)c1 (stereo not shown) [Example 291]")
"14 µM"
>>> readout_value("Cc1nsc(Nc2cnc3ccccc3n2)c1C(=O)Nc1cccc(C(=O)N[C@@H](CCC(N)=O)C(=O)OC(C)(C)C)c1 [Example 56]")
"≥ 20 µM"
>>> readout_value("Cc1nsc(Nc2ccc(C#N)cn2)c1C(=O)Nc1ccc(OC2CCCN(CC(F)F)C2)nc1 (stereo not shown) [Example 39]")
"≥ 20 µM"
>>> readout_value("Cc1nsc(Nc2cnc3ccccc3n2)c1C(=O)Nc1cccc(C(=O)N[C@H](C(=O)O)[C@@H](C)OC(C)(C)C)c1 [Example 104]")
"≥ 20 µM"
>>> readout_value("Cc1nsc(Nc2cnc(C(F)(F)F)cn2)c1C(=O)Nc1ccc(O[C@@H]2CN(CC(F)(F)F)C[C@@H]2F)nc1 [Example 410]")
"> 20 µM"
>>> readout_value("Cc1nsc(Nc2cnc3ccccc3n2)c1C(=O)Nc1ccc(OC2CCCN(CC(F)F)C2)nc1 (stereo not shown) [Example 33]")
"≥ 20 µM"

# IC50 of Cc1nsc(Nc2cnc(C(F)(F)F)cn2)c1C(=O)Nc1ccc(F)c(OCC2CCCN(CC(F)(F)F)C2)c1 (stereo not shown) [Example 337] = ≥ 20 µM

Lab book: IC50 of Cc1nsc(Nc2cnc(C(F)(F)F)cn2)c1C(=O)Nc1ccc(OC2CCN(CC(F)(F)F)CC2)c(F)c1 [Example 163] noted as > 20 µM

Input Cc1nsc(Nc2cnc(C(F)(F)F)cn2)c1C(=O)Nc1ccc(OC[C@@H]2CCN(CC(F)F)C2)nc1 [Example 127] . Output IC50: > 20 µM

* * *

# System: human cervical tumor cell line HeLa (ATCC CCL-2)
# Assay Summary: SAC-Formation - Nocodazole-Induced Assay
# Type: cell-based
# Experimental Conditions: Homo sapiens, HeLa, 24 h, HeLa cells, nocodazole 0.1 μg/ml together with test compound, decrease of mitotic cells (phospho-histone H3 Ser10)
Experimental Endpoint: IC50 (nM)

Guide cases for IC50, answers given:
>>> readout_value("Cc1nsc(Nc2cncc(C(F)(F)F)n2)c1C(=O)Nc1ccc(OC2CCN(CCC(F)(F)F)CC2)nc1")
130
>>> readout_value("CNS(=O)(=O)c1ccc(NC(=O)c2c(C)nsc2Nc2cnc(C(F)(F)F)cn2)cc1")
2000
>>> readout_value("Cc1nsc(Nc2cnc3ccccc3n2)c1C(=O)Nc1cccc(C(=O)O)c1")
20000

A = Cc1nsc(Nc2cnc3ccccc3n2)c1C(=O)Nc1cccc(C(=O)N[C@H](C(=O)OC(C)(C)C)[C@@H](C)OC(C)(C)C)c1
B = Cc1nsc(Nc2cncc(C(F)(F)F)n2)c1C(=O)Nc1ccc(F)c(OC2CCN(CCC(F)(F)F)CC2)c1
C = Cc1nsc(Nc2cnc(C(F)(F)F)cn2)c1C(=O)Nc1ccc(F)c(OCCCN(C)CC(F)(F)F)c1
List these items ordered by IC50, big to small. List the labels in the requested order.
A, B, C

I = Cc1nsc(Nc2ccc(C#N)cn2)c1C(=O)Nc1ccc(OC2CCN(C(=O)OC(C)(C)C)CC2)nc1
II = Cc1nsc(Nc2ccc(C#N)cn2)c1C(=O)Nc1ccc(S(C)(=O)=O)cc1
Choose between I and II : whose measured IC50 value is numerically larger? Bench note: the answer is the label of the chosen record.
II
(II: 330 nM, I: 150 nM)
